- Test system: trypsin
- TEST_PROTOCOL: Resistance of peptide ligands to proteolytic digestion: IgG yield after contact with trypsin
- Format: in vitro ADME
- MEASUREMENT_CONTEXT: after α-chymotrypsin and then trypsin in Tris buffer pH 8.5
Where a SMILES comes first, the peptide text is derived from it. [ ]: non-standard residue; d: D form. The star is where a group is joined. Trp(1-Me) = Cn1cc(C[C@H](N)C(=O)O)c2ccccc21; Phe(4-Me) = Cc1ccc(C[C@H](N)C(=O)O)cc1; Lys(Me2) = CN(C)CCCC[C@H](N)C(=O)O; Cit = NC(=O)NCCC[C@H](N)C(=O)O; For = O=C*
MEASUREMENT_NAME: IgG Yield 3rd run (after trypsin) (%)
Enter your answer as a number in %; do not include the unit.

Example compounds with recorded IgG Yield 3rd run (after trypsin):
COMPOUND | TARGET_DESC | IgG Yield 3rd run (after trypsin), %
CC(C)[C@H](NC(=O)[C@H](Cc1cn(C=O)c2ccccc12)NC(=O)CNC(=O)[C@H](CCCNC(N)=O)NC(=O)[C@H](Cc1cn(C=O)c2ccccc12)NC(=O)[C@@H](N)Cc1c[nH]cn1)C(=O)O [HWForCitGWForV] (H-HW(For)[Cit]GW(For)V-OH; N-terminus and C-terminus assumed) | trypsin | 69
CC(C)[C@H](NC(=O)[C@H](Cc1cn(C)c2ccccc12)NC(=O)CNC(=O)[C@H](CCCNC(=N)N)NC(=O)[C@H](Cc1cn(C)c2ccccc12)NC(=O)[C@@H](N)Cc1c[nH]cn1)C(=O)O [HWMetRGWMetV] (H-H[Trp(1-Me)]RG[Trp(1-Me)]V-OH; N-terminus and C-terminus assumed) | trypsin | 82

# evaluate next
What measured IgG Yield 3rd run (after trypsin) goes with COc1ccc(C[C@H](NC(=O)[C@@H](N)Cc2c[nH]cn2)C(=O)N[C@@H](Cc2ccc(C)cc2)C(=O)N[C@@H](CCCCN(C)C)C(=O)N[C@@H](Cc2ccc(C)cc2)C(=O)N[C@@H](CC(=O)O)C(=O)O)cc1 [HYMetFMetKMet2FMetD] (H-HY(Me)[Phe(4-Me)][Lys(Me2)][Phe(4-Me)]D-OH; N-terminus and C-terminus assumed) ?
53

---

- System: trypsin
- TEST_PROTOCOL: Resistance of peptide ligands to proteolytic digestion: IgG yield after contact with trypsin
- Assay type: in vitro ADME
- MEASUREMENT_CONTEXT: after α-chymotrypsin and then trypsin in Tris buffer pH 8.5
Where a SMILES comes first, the peptide text is derived from it. [ ]: non-standard residue; d: D form. Trp(1-Me) = Cn1cc(C[C@H](N)C(=O)O)c2ccccc21; Phe(4-Me) = Cc1ccc(C[C@H](N)C(=O)O)cc1; Cit = NC(=O)NCCC[C@H](N)C(=O)O
MEASUREMENT_NAME: IgG Yield 3rd run (after trypsin) (%)
Enter your answer as a number in %; do not include the unit.

Example molecules with recorded IgG Yield 3rd run (after trypsin):
MOLECULE | OBS_VALUE
Cc1ccc(C[C@H](NC(=O)[C@@H](N)Cc2c[nH]cn2)C(=O)N[C@@H](CCCNC(N)=O)C(=O)N[C@@H](CCCNC(N)=O)C(=O)N[C@@H](Cc2c[nH]cn2)C(=O)N[C@@H](CC(C)C)C(=O)O)cc1 [HFMetCitCitHL] (H-H[Phe(4-Me)][Cit][Cit]HL-OH; N-terminus and C-terminus assumed) | 91
CC(C)[C@H](NC(=O)[C@H](Cc1c[nH]c2ccccc12)NC(=O)CNC(=O)[C@H](CCCNC(N)=O)NC(=O)[C@H](Cc1c[nH]c2ccccc12)NC(=O)[C@@H](N)Cc1c[nH]cn1)C(=O)O [HWCitGWV] (H-HW[Cit]GWV-OH; N-terminus and C-terminus assumed) | 71

# evaluate next
What measured IgG Yield 3rd run (after trypsin) goes with CC(C)[C@H](NC(=O)[C@H](Cc1cn(C)c2ccccc12)NC(=O)CNC(=O)[C@H](CCCNC(N)=O)NC(=O)[C@H](Cc1cn(C)c2ccccc12)NC(=O)[C@@H](N)Cc1c[nH]cn1)C(=O)O [HWMetCitGWMetV] (H-H[Trp(1-Me)][Cit]G[Trp(1-Me)]V-OH; N-terminus and C-terminus assumed) ?
90
